Reference source: a melting point compilation (Tetko et al.)

melting point overview

Past entries and their recorded results:
* COCCOc1cc2c(cc1C=O)OCO2 | 84 to 86 °C
* NC(=O)Cc1nc2ccccc2[nH]1 | 229 to 231 °C

Task: Any idea what its melting point is? The compound is `O=C(O)CCNS(=O)(=O)c1cccc(Cl)c1`
Result: 143 to 145 °C

Task: Look at this compound and give its reported melting point. CN1C(=O)CC(C(=O)O)C1c1cccs1 (stereo not drawn)
Result: 139 to 141 °C

Task: Given `CC(C)c1nnc(CC#N)[nH]1` , state its recorded melting point.
Result: 148 to 150 °C

Task: What melting point value was documented for this compound, `CNC1=NS(=O)(=O)c2ccccc21` ?
Result: 269 to 271 °C

Task: Entry `NNC(=S)Nc1cc(S(=O)(=O)N2CCOCC2)ccc1Cl` : reported melting point = ?
Result: 181 to 183 °C

Task: Entry `COC(=O)c1cc(Cl)cc(Cl)c1N` : reported melting point = ?
Result: 65 to 67 °C

Task: Which melting point value is on record for `NCc1ccc(OCCCOc2ccc(Cl)cc2Cl)cc1` ?
Result: 51 to 53 °C

Task: So what does the record say about melting point for `O=C(CCCl)Nc1ccc(Br)cc1` ?
Result: 126 to 128 °C

Task: What measured melting point goes with `NC(=O)c1ccc(N2CCNCC2)nc1` ?
Result: 195 to 197 °C

Task: Entry under review: `CS(=O)(=O)c1ccc(N)cn1` . Reported melting point?
Result: 171 to 173 °C

Task: Using the record for `Cc1ccc2nc(-c3ccc(N4C(=O)C=CC4=O)cc3)sc2c1` , report its melting point.
Result: 259 to 261 °C
